Would you kindly list melting point for each of these compounds?

Recorded result, COc1ccc(C(=O)c2ccc(Br)cc2)c(F)c1 , melting point: 125 to 126 °C

Recorded result, CNC(=S)Nc1ccc(Cl)nc1 , melting point: 164 °C

Recorded result, CCCCc1nn(-c2cc(NC(=O)CC)ccc2Cl)c(=O)n1Cc1ccc(-c2ccccc2S(=O)(=O)NC(=O)c2ccccc2Cl)cc1F , melting point: > 152 °C

Recorded result, CCCc1c[nH]c(=O)[nH]c1=O , melting point: 286 to 287 °C

Recorded result, COc1ccccc1-c1cc2c(Nc3cccc(Cl)c3)ncnc2[nH]1 , melting point: 221 °C

Recorded result, CC(C)(C)OC(=O)Nc1ccc(-c2cccnc2)cc1[N+](=O)[O-] , melting point: 107 to 109 °C

Recorded result, CC1(C)C(=O)Nc2ccccc2C1(O)c1ccccc1 (configuration not stated) , melting point: 185 to 187 °C

Recorded result, C#CC(C)(C)c1cc(NC(=O)NC)no1 , melting point: 99 to 100 °C

Recorded result, CC(C)C1C(=O)N(CSc2ccccc2)S(=O)(=O)N1C (configuration not stated) , melting point: 82 to 83 °C

Recorded result, CCOC(=O)C1=C(C)NC(c2cncs2)=NC1c1ccc(F)cc1Cl (configuration not stated) , melting point: 121 to 125 °C

Recorded result, CCN(CC)CCOc1ccc(NC(=O)C#Cc2cccnc2)cc1Cl , melting point: 118 to 120 °C

Recorded result, COc1cc(C2C3=C(COC3=O)Nc3ccc4nc(C)sc4c32)ccc1[N+](=O)[O-] (configuration not stated) , melting point: 190 to 191 °C

Recorded result, CC1(C)C(=O)Nc2ccc(C3=NNC(=O)C4CCC34)cc21 (configuration not stated) , melting point: 315 to 317 °C

Recorded result, CCCCc1ccc2ncn(Cc3ccc(-c4ccccc4-c4nnnn4COC)cc3)c(=O)c2c1 , melting point: 112 °C

Recorded result, CC(C)Nc1cccnc1N1CCN(C(=O)c2ccc(C(=O)N(C)CC3OCCO3)cc2)CC1 , melting point: 102 to 104 °C

Recorded result, O=c1[nH]c2ccc(F)cc2c(=O)n1-c1ccc(Cl)cc1Cl , melting point: 313 to 314 °C

Recorded result, CC(C)c1ccc(C(=O)CCl)cc1S(N)(=O)=O , melting point: 141 °C

Recorded result, CCc1cc(Br)cc2c1C(=O)C(=O)N2 , melting point: 229 to 230 °C

Recorded result, Cn1c(N)c(C#N)c(Cl)c1C=O , melting point: 282 to 285 °C

Recorded result, N#Cc1ccc(Cn2c(=O)sc3c(=O)[nH]c(N)nc32)cc1 , melting point: > 320 °C

Recorded result, O=Cc1ccc2c3c1ccc1cccc(c13)C2 , melting point: 209 to 212 °C

Recorded result, O=[N+]([O-])c1c(O)ccnc1O , melting point: > 230 °C
